Parameter: fold induction at 3 µM. Scope: all listed entries.
Tested on: primary human total T-cells
ASSAY: Primary human total T-cell activation: IL-2 secretion, Biological Example 13
Assay type: cell-based
STUDY_CONDITIONS: anti-CD3 alone, inhibitor 3 μM, 48 hours, fold change over baseline, Table 13-1
QUANTITY_MEASURED: fold induction at 3 µM

>>> print(df.to_string())
                                   molecule  experimental_result
0  Cn1cnnc1CC1(c2cccc(N3Cc4c(cc(CN5CCC6(CC6)C5)cc4C(F)(F)F)C3=O)c2)COC1 [Compound 59]         0.34 to 0.66
1  C[C@H]1CCCN(Cc2cc3c(c(C(F)(F)F)c2)CN(c2cccc(C4(Cc5nncn5C)COC4)c2)C3=O)C1 [Compound 1]               > 0.66
2  C[C@@H]1C[C@H](C)CN(Cc2cc3c(c(C(F)(F)F)c2)CN(c2cccc(C4(Cc5nncn5C)COC4)c2)C3=O)C1 [Compound 2]               > 0.66
3  C[C@@H](c1cc2c(c(C(F)(F)F)c1)CN(c1cccc(C3(Cc4nncn4C)COC3)c1)C2=O)N1CC[C@H](F)C1 [Compound 55]         0.34 to 0.66
4  Cc1cc(C(=O)Nc2cccc(C3(Cc4nncn4C)COC3)c2)nc(C2CC2)n1 [Compound 53]         0.34 to 0.66

====

Test system: primary human total T-cells
ASSAY: Primary human total T-cell activation: IL-2 secretion, Biological Example 13
Type: cell-based
STUDY_CONDITIONS: anti-CD3 alone, inhibitor 3 μM, 48 hours, fold change over baseline, Table 13-1
QUANTITY_MEASURED: fold induction at 3 µM

                      smiles_representation  experimental_result
0  C[C@@H]1CN(Cc2cc3c(c(C(F)(F)F)c2)CN(c2cccc(C4(Cc5nncn5C)COC4)c2)C3=O)CCC1(F)F               > 0.66
1  CCOc1cc(C2(Cc3nncn3C)COC2)cc(N2Cc3c(cc(CN4CCC(F)(F)[C@H](C)C4)cc3C(F)(F)F)C2=O)n1         0.34 to 0.66
2  C[C@@H](c1cc2c(c(C(F)(F)F)c1)CN(c1cccc(C3([C@@H](F)c4nncn4C)COC3)c1)C2=O)N1CCC2(CC2)C1         0.34 to 0.66
3  C[C@@H]1CN(Cc2cc(C(=O)Nc3cccc(C4(Cc5nncn5C)COC4)c3)nc(C3CC3)c2)CCC1(F)F               > 0.66
4  C[C@@H](c1cc2c(c(C(F)(F)F)c1)CN(c1cccc(C3(Cc4nncn4C)COC3)c1)C2=O)N1CCC(F)CC1         0.34 to 0.66
5  CCNc1cc(C2(Cc3nncn3C)COC2)cc(N2Cc3c(cc(CN4CCC[C@H](C)C4)cc3C(F)(F)F)C2=O)n1         0.34 to 0.66
6  CCOc1cc(C2(Cc3nncn3C)COC2)cc(N2Cc3c(cc(CN4CCC[C@H](C)C4)cc3C(F)(F)F)C2=O)n1               > 0.66

====

Parameter: IC50. Scope: all listed entries.
TGT: Cbl-b (Homo sapiens (Human), UniProt Q13191)
Sequence (Q13191 36-427): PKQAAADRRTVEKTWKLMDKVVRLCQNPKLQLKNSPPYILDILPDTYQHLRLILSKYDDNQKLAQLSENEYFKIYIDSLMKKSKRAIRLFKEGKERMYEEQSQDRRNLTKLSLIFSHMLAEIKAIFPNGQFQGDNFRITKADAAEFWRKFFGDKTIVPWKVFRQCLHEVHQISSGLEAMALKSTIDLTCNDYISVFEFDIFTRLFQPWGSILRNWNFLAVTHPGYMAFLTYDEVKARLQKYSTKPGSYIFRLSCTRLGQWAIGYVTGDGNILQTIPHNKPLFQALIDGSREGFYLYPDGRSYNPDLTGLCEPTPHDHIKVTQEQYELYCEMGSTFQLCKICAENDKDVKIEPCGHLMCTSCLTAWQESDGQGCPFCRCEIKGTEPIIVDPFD
ASSAY: Cbl-b displacement assay (Cbl-b inhibition assay), TR-FRET probe displacement, Biological Example 1
Format: binding
STUDY_CONDITIONS: 0.125 nM Cbl-b final concentration (Low); read-out: Cbl-b activity IC50 (Low)
QUANTITY_MEASURED: IC50

In [3]: df
Out[3]:
                                   compound  experimental_result
0  C[C@H]1C[C@H](CO)CN(Cc2cc3c(c(C(F)(F)F)c2)CN(c2cccc(C4(Cc5nncn5C)COC4)c2)C3=O)C1 (relative stereo)               < 1 nM
1  CCOc1cc(C2(Cc3nncn3C)COC2)cc(N2Cc3c(cc(CN4CCC[C@H](C)C4)nc3C3CC3)C2=O)n1               < 1 nM
2  CCOc1cc(C2(Cc3nncn3C)COC2)cc(N2Cc3c(cc(CN4CCC(F)(F)[C@H](C)C4)nc3C3CC3)C2=O)n1            1 to 5 nM
3  C[C@H](c1cc2c(c(C3CC3)n1)CN(c1cccc(C3(Cc4nncn4C)COC3)c1)C2=O)N1CCC(F)(F)[C@H](C)C1               < 1 nM
4  CCNc1cc(C2(Cc3nncn3C)COC2)cc(N2Cc3c(cc(CN4CCC[C@H](C)C4)nc3C3CC3)C2=O)n1            1 to 5 nM
5  C[C@@H]1CN(Cc2cc3c(c(C(F)(F)F)c2)CN(c2cccc(C4(Cc5nncn5C(F)F)COC4)c2)C3=O)CCC1(F)F            1 to 5 nM

====

TGT: Cbl-b (Homo sapiens (Human))
ASSAY: Cbl-b displacement assay (Cbl-b inhibition assay), TR-FRET probe displacement, Biological Example 1
Format: binding
STUDY_CONDITIONS: Cbl-b concentration (High or Low) not given; read-out: IC50 values in the Cbl-b inhibition assay of Biological Example 1
Parameter: IC50. Scope: all listed entries.
QUANTITY_MEASURED: IC50

>>> print(df.to_string())
                                    molecule  quantity_measured  experimental_result
 0  C[C@H]1CCCN(Cc2cc3c(c(C4CC4)n2)CN(c2cccc(C4(Cc5nncn5C(F)F)COC4)c2)C3=O)C1 [Compound 37]               IC50            1 to 5 nM
 1  Cn1cnnc1CC1(c2cccc(N3Cc4c(cc(CN5CCC(F)(F)[C@H](C#N)C5)cc4C(F)(F)F)C3=O)c2)COC1 [Compound 11]               IC50            1 to 5 nM
 2  C[C@H]1CCCN(Cc2cc3c(c(C(F)(F)F)c2)CN(c2cccc(C4(Cc5nncn5C)COC4)c2)C3=O)C1 [Compound 1]               IC50               < 1 nM
 3  C[C@@H]1C[C@H](C)CN(Cc2cc3c(c(C(F)(F)F)c2)CN(c2cccc(C4(Cc5nncn5C)COC4)c2)C3=O)C1 [Compound 2]               IC50               < 1 nM
 4  CCNc1cc(C2(Cc3nncn3C)COC2)cc(N2Cc3c(cc(CN4CCC[C@H](C)C4)cc3C(F)(F)F)C2=O)n1 [Compound 44]               IC50               < 1 nM
 5  C[C@H]1C[C@@H](CO)CN(Cc2cc3c(c(C(F)(F)F)c2)CN(c2cccc(C4(Cc5nncn5C)COC4)c2)C3=O)C1 (relative stereo) [Compound 23]               IC50               < 1 nM
 6  CCOc1cc(C2(Cc3nncn3C)COC2)cc(N2Cc3c(cc(CN4CCC[C@H](C)C4)nc3C3CC3)C2=O)n1 [Compound 40]               IC50               < 1 nM
 7  Cn1cnnc1CC1(c2cccc(N3Cc4c(cc(CN5CCC(F)(F)[C@@H](C#N)C5)cc4C(F)(F)F)C3=O)c2)COC1 [Compound 10]               IC50               < 1 nM
 8  C[C@@H]1CN(Cc2cc3c(c(C4CC4)n2)CN(c2cccc(C4(Cc5nncn5C(F)F)COC4)c2)C3=O)CCC1(F)F [Compound 38]               IC50            1 to 5 nM
 9  CCNc1cc(C2(Cc3nncn3C)COC2)cc(N2Cc3c(cc(CN4CCC(F)(F)[C@H](C)C4)cc3C(F)(F)F)C2=O)n1 [Compound 27]               IC50        5.1 to 100 nM
10  C[C@H]1CCCN(Cc2cc3c(c(C(F)(F)F)c2)CN(c2cc(C4(Cc5nncn5C)COC4)ccn2)C3=O)C1 [Compound 48]               IC50            1 to 5 nM
11  C[C@@H]1CN(Cc2cc3c(c(C(F)(F)F)c2)CN(c2cc(C4(Cc5nncn5C)COC4)cc(C4CC4)n2)C3=O)CCC1(F)F [Compound 30]               IC50        5.1 to 100 nM
12  C[C@@H]1CCCN(Cc2cc3c(c(C(F)(F)F)c2)CN(c2cccc(C4(Cc5nncn5C)COC4)c2)C3=O)C1 [Compound 3]               IC50            1 to 5 nM
